pIC50: −log10 of the molar value.
pIC50, JAK1 (Homo sapiens, UniProt P23458): measured values

- smiles_notation: "CN(c1ncnc2[nH]ccc12)C1CC2(C1)CN(C(=O)c1ccc(C#N)nc1)C2"
  measured: "7.00 to 8.00"
- smiles_notation: "COC(=O)N1CCC2(CCC(N(C)c3ncnc4[nH]ccc34)CC2)CC1"
  measured: "≥ 8.00"
- smiles_notation: "CCCS(=O)(=O)N1CCC2(CCC(N(C)c3ncnc4c3CCN4)CC2)CC1"
  measured: "6.00 to 7.00"
- smiles_notation: "COC(=O)N1CC2(CC(N(C)c3ncnc4[nH]ccc34)C2)C1"
  measured: "6.00 to 7.00"
- smiles_notation: "CC(=O)N1CC2(CC(N(C)c3ncnc4[nH]ccc34)C2)C1"
  measured: "6.00 to 7.00"

Query: Given CN(c1ncnc2[nH]ccc12)C1CC2(C1)CN(C(=O)c1cc(F)cc(C#N)c1)C2 , state its recorded pIC50.
Reply: ≥ 8.00

Query: What do you get for CN(c1ncnc2[nH]ccc12)C1CC2(C1)CN(C(=O)c1ccc(C#N)c(F)c1F)C2 ?
Reply: ≥ 8.00
